molecular target: T1, human CCR8 (human, UniProt P51685 1-355); assay: FACS of purified scFv on CHO-K1-human CCR8 cells
T1 construct: whole, on cells; also called hCCR8
T1 sequence (P51685 whole entry): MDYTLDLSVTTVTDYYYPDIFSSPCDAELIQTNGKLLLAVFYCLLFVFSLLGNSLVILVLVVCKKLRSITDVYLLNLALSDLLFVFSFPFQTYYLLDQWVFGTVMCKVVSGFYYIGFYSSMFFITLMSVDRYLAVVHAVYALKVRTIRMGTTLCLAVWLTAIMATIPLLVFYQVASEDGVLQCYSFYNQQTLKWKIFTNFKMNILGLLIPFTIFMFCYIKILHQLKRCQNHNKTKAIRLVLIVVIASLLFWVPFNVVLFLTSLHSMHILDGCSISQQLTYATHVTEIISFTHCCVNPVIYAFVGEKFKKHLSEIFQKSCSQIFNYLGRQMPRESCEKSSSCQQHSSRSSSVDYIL
Labelling field: enter criterion met if recorded GeoMean AF647 (RL1-H) of CHO-K1-human CCR8 / GeoMean AF647 (RL1-H) in H12(NC) is less than 6. Enter criterion not met if it equals or exceeds that cut-off.

| binder | discrete_label |
| --- | --- |
| VH-PH5-P7B9 (scFv) scFv: EVQLVESGGGLVQPGGSLKLSCAASGFTFNTYAMNWVRQASGKGLEWVGRIRSKSNFYATAYAASVKGRFTISRDDSKNTAYLQMNSLKTEDTAVYYCTRGREYGSSYAMDYWGQGTLVTVSSGGGGSGGGGSGGGGSDIVMTQSPLSLPVTPGEPASISCRSSKSLLHSNANTYLYWFLQKPGQSPQLLIYRMSNLASGVPDRFSGSGSGTDFTLKISRVEAEDVGVYYCMQHLEYPLTFGGGTKVELK | criterion not met |
| 149-9 scFv (WT) (scFv, VH-VL format with (G4S)3 linker) scFv: EVQLVESGGGLVQPGGSLKLSCAASGFTFNTYAMNWVRQASGKGLEWVGRIRSKSNFYATAYAASVKGRFTISRDDSKNTAYLQMNSLKTEDTAVYYCTRGRDYGSSYAMDYWGQGTLVTVSSGGGGSGGGGSGGGGSDIVMTQSPLSLPVTPGEPASISCRSSKSLLHSNANTYLYWFLQKPGQSPQLLIYRMSNLASGVPDRFSGSGSGTDFTLKISRVEAEDVGVYYCMQHLEYPLTFGGGTKVELK | criterion met |
| VH-PH5-P9E9 (scFv) scFv: EVQLVESGGGLVQPGGSLKLSCAASGFTFNTYAMNWVRQASGKGLEWVGRIRSKSNFYATAYAASVKGRFTISRDDSKNTAYLQMNSLKTEDTAVYYCTRGKEYGSSYAMDYWGQGTLVTVSSGGGGSGGGGSGGGGSDIVMTQSPLSLPVTPGEPASISCRSSKSLLHSNANTYLYWFLQKPGQSPQLLIYRMSNLASGVPDRFSGSGSGTDFTLKISRVEAEDVGVYYCMQHLEYPLTFGGGTKVELK | criterion not met |
| VH-PH5-P2B6(LCDR3) (scFv) scFv: EVQLVESGGGLVQPGGSLKLSCAASGFTFNTYAMNWVRQASGKGLEWVGRIRSKSNFYATAYAASVKGRFTISRDDSKNTAYLQMNSLKTEDTAVYYCTRGRDYGSSYAMDYWGQGTLVTVSSGGGGSGGGGSGGGGSDIVMTQSPLSLPVTPGEPASISCRSSKSLLHSNANTYLYWFLQKPGQSPQLLIYRMSNLASGVPDRFSGSGSGTDFTLKISRVEAEDVGVYYCMQHLKYPLTFGGGTKVELK | criterion met |
